Reference source for all entries: paper PMC12419465

# tested-target: full-length, proteolytically inactive Taspase 1 (Homo sapiens, UniProt Q9H6P5, D233A/T234A)
# Sequence (Q9H6P5 whole entry D233A/T234A): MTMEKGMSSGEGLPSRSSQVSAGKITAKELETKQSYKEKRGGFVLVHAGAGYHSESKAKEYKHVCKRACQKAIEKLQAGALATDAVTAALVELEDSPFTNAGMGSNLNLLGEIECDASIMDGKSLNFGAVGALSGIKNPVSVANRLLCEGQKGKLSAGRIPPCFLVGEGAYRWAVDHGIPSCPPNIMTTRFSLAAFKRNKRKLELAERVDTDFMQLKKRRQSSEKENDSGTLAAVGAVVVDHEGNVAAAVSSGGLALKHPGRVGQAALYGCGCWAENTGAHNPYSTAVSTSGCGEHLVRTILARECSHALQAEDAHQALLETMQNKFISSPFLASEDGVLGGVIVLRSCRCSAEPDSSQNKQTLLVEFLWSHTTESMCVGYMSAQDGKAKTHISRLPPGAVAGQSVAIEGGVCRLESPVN
# assay-name: Surface plasmon resonance on immobilized full-length, inactive Taspase 1
# Type: binding
# experimental-conditions: isomer E; Table S3; n = 2

[
  {
    "query-smiles": "Cc1nn(-c2ccc(C#Cc3ccc(-c4cn(CCOP(=O)(O)Oc5c6c(c(OP(=O)(O)O)c7c5C5CC7c7cc8c(cc75)C5CC8c7ccccc75)C5CC6c6cc7c(cc65)C5CC7c6ccccc65)nn4)cc3)cc2)c(C)c1N=Nc1ccc(C#Cc2ccc(-c3cn(CCOP(=O)(O)Oc4c5c(c(OP(=O)(O)O)c6c4C4CC6c6cc7c(cc64)C4CC7c6ccccc64)C4CC5c5cc6c(cc54)C4CC6c5ccccc54)nn3)cc2)cc1",
    "ka": "4690 ± 1260 M⁻¹ s⁻¹"
  },
  {
    "query-smiles": "Cc1nn(-c2ccc(-c3cn(CCOP(=O)(O)Oc4c5c(c(OP(=O)(O)O)c6c4C4CC6c6cc7c(cc64)C4CC7c6ccccc64)C4CC5c5cc6c(cc54)C4CC6c5ccccc54)nn3)cc2)c(C)c1N=Nc1ccc(-c2ccc(-c3cn(CCOP(=O)(O)Oc4c5c(c(OP(=O)(O)O)c6c4C4CC6c6cc7c(cc64)C4CC7c6ccccc64)C4CC5c5cc6c(cc54)C4CC6c5ccccc54)nn3)cc2)cc1",
    "ka": "957 ± 56.1 M⁻¹ s⁻¹"
  },
  {
    "query-smiles": "O=P(O)(O)Oc1c2c(c(OP(=O)(O)OCCn3cc(-c4ccc(N=Nc5ccc(-c6cn(CCOP(=O)(O)Oc7c8c(c(OP(=O)(O)O)c9c7C7CC9c9cc%10c(cc97)C7CC%10c9ccccc97)C7CC8c8cc9c(cc87)C7CC9c8ccccc87)nn6)cc5)cc4)nn3)c3c1C1CC3c3cc4c(cc31)C1CC4c3ccccc31)C1CC2c2cc3c(cc21)C1CC3c2ccccc21",
    "ka": "596 ± 116 M⁻¹ s⁻¹"
  },
  {
    "query-smiles": "Cc1nn(-c2ccc(-n3cc(CCOP(=O)(O)Oc4c5c(c(OP(=O)(O)O)c6c4C4CC6c6cc7c(cc64)C4CC7c6ccccc64)C4CC5c5cc6c(cc54)C4CC6c5ccccc54)nn3)cc2)c(C)c1N=Nc1ccc(-n2cc(CCOP(=O)(O)Oc3c4c(c(OP(=O)(O)O)c5c3C3CC5c5cc6c(cc53)C3CC6c5ccccc53)C3CC4c4cc5c(cc43)C3CC5c4ccccc43)nn2)cc1",
    "ka": "1120 ± 34 M⁻¹ s⁻¹"
  },
  {
    "query-smiles": "Cc1nn(Cc2cn(CCOP(=O)(O)Oc3c4c(c(OP(=O)(O)O)c5c3C3CC5c5cc6c(cc53)C3CC6c5ccccc53)C3CC4c4cc5c(cc43)C3CC5c4ccccc43)nn2)c(C)c1N=Nc1ccc(-c2cn(CCOP(=O)(O)Oc3c4c(c(OP(=O)(O)O)c5c3C3CC5c5cc6c(cc53)C3CC6c5ccccc53)C3CC4c4cc5c(cc43)C3CC5c4ccccc43)nn2)cc1",
    "ka": "1170 ± 96.4 M⁻¹ s⁻¹"
  }
]

----------
# assay-name: Photoisomerization: photostationary states by 1H NMR, switching cycles by UV-vis
# Format: physicochemical
# experimental-conditions: green light 520 nm

[
  {
    "query-smiles": "O=P(O)(O)Oc1c2c(c(OP(=O)(O)OCCn3cc(-c4ccc(N=Nc5ccc(-c6cn(CCOP(=O)(O)Oc7c8c(c(OP(=O)(O)O)c9c7C7CC9c9cc%10c(cc97)C7CC%10c9ccccc97)C7CC8c8cc9c(cc87)C7CC9c8ccccc87)nn6)cc5)cc4)nn3)c3c1C1CC3c3cc4c(cc31)C1CC4c3ccccc31)C1CC2c2cc3c(cc21)C1CC3c2ccccc21",
    "unit": "%",
    "PSS Z→E, photostationary state": 61
  },
  {
    "query-smiles": "O=P(O)(O)Oc1c2c(c(OP(=O)(O)OCCn3cc(COCc4ccc(N=Nc5ccc(COCc6cn(CCOP(=O)(O)Oc7c8c(c(OP(=O)(O)O)c9c7C7CC9c9cc%10c(cc97)C7CC%10c9ccccc97)C7CC8c8cc9c(cc87)C7CC9c8ccccc87)nn6)cc5)cc4)nn3)c3c1C1CC3c3cc4c(cc31)C1CC4c3ccccc31)C1CC2c2cc3c(cc21)C1CC3c2ccccc21",
    "unit": "%",
    "PSS Z→E, photostationary state": 56
  },
  {
    "query-smiles": "Cc1nn(-c2ccc(-c3cn(CCOP(=O)(O)Oc4c5c(c(OP(=O)(O)O)c6c4C4CC6c6cc7c(cc64)C4CC7c6ccccc64)C4CC5c5cc6c(cc54)C4CC6c5ccccc54)nn3)cc2)c(C)c1N=Nc1ccc(-c2ccc(-c3cn(CCOP(=O)(O)Oc4c5c(c(OP(=O)(O)O)c6c4C4CC6c6cc7c(cc64)C4CC7c6ccccc64)C4CC5c5cc6c(cc54)C4CC6c5ccccc54)nn3)cc2)cc1",
    "unit": "%",
    "PSS Z→E, photostationary state": 92
  }
]
